test system: BDF1 mice, P388 leukemia ip, median survival T/C; experiment: NCI In Vivo Anticancer Drug Screen. Data for tumor model P388 Leukemia (intraperitoneal) in B6D2F1 (BDF1) mice; settings: endpoint: median survival time; dose: 25.0 mg/kg/injection; schedule: Q04DX003 (ip); vehicle: saline with Tween-80; higher = longer survival
Toxic doses and inconclusive results are not listed.
Would you mind telling me the reported T/C of each entry?

The measured T/C associated with `Clc1ccc(C#Cc2ccc(Cl)cc2)cc1` reads 96 % of control

The measured T/C associated with `C[n+]1ccc2cc(N)c3c4ccccc4sc3c2c1` reads 112 % of control

The measured T/C associated with `Oc1ccc(-c2n[nH]c3c2CCCc2ccccc2-3)cc1` reads 118 % of control

* * *

Would you mind telling me the reported T/C of each entry?
system: BDF1 mice, P388 leukemia ip, median survival T/C; test: NCI In Vivo Anticancer Drug Screen. Data for tumor model P388 Leukemia (intraperitoneal) in B6D2F1 (BDF1) mice; details: endpoint: median survival time; dose: 100.0 mg/kg/injection; schedule: Q01DX001 (ip); vehicle: saline; higher = longer survival
Inconclusive results and toxic doses are left out.

The measured T/C associated with `CC(C)(C)/C([O-])=N/[N+](C)(C)Cc1ccccc1` reads 109 % of control

The measured T/C associated with `C[S+](C)CC(=O)c1ccccc1` reads 116 % of control

The measured T/C associated with `COc1cc(C(C2=C(O)c3ccccc3C(=O)C2=O)C2=C(O)c3ccccc3C(=O)C2=O)cc(Br)c1O` reads 115 % of control

The measured T/C associated with CCOC(=O)C1CN(Cc2ccccc2)CCC1=O (stereo not given) reads 95 % of control

The measured T/C associated with O=C(/C=C\c1ccc(O)c(O)c1)OC1C(O)CC(OC(=O)/C=C/c2ccc(O)c(O)c2)(C(=O)O)CC1O (stereo not given) reads 95 % of control

* * *

tested on: BDF1 mice, P388 leukemia ip, median survival T/C; assay: NCI In Vivo Anticancer Drug Screen. Data for tumor model P388 Leukemia (intraperitoneal) in B6D2F1 (BDF1) mice; settings: endpoint: median survival time; dose: 12.5 mg/kg/injection; schedule: Q04DX003 (ip); vehicle: saline with Tween-80; higher = longer survival
Inconclusive results and toxic doses are left out.
parameter: T/C

The measured T/C associated with `CC(C)(C)c1cc2c3c(c1)C(C)(C)OS3(C)OC2(C)C` reads 100 % of control

The measured T/C associated with `C=CC[n+]1ccccc1C(c1ccccc1)c1ccccc1` reads 91 % of control

The measured T/C associated with CCCCC(I)C(C)(C)[n+]1ccccc1 (stereo not drawn) reads 87 % of control

The measured T/C associated with `O=C1C(Cl)=CC(=NS(=O)(=O)c2ccccc2)C=C1Cl` reads 110 % of control

The measured T/C associated with CNC(C)(C)C(SSSC(c1ccc(Cl)cc1)C(C)(C)NC)c1ccc(Cl)cc1 (stereo not drawn) reads 101 % of control

The measured T/C associated with CCCCNCCC(SSSC(CCNCCCC)c1ccc(Cl)cc1)c1ccc(Cl)cc1 (stereo not drawn) reads 100 % of control

The measured T/C associated with `O=C(CNC(=O)Nc1ccc(C2=NCCN2)cc1)Nc1ccc(C2=NCCN2)cc1` reads 100 % of control

The measured T/C associated with `C[n+]1ccc2cc(N)c3c4ccccc4sc3c2c1` reads 112 % of control

* * *

test system: BDF1 mice, P388 leukemia ip, median survival T/C; assay: NCI In Vivo Anticancer Drug Screen. Data for tumor model P388 Leukemia (intraperitoneal) in B6D2F1 (BDF1) mice; conditions: endpoint: median survival time; dose: 100.0 mg/kg/injection; schedule: Q04DX003 (ip); vehicle: saline; higher = longer survival
Toxic doses and inconclusive results are not listed.
parameter: T/C

The measured T/C associated with CC12CCC(C(N)C1=O)C2(C)C (stereo unspecified) reads 101 % of control

The measured T/C associated with `O=[N+]([O-])c1cccc(O)c1` reads 118 % of control

The measured T/C associated with C#CC1(OCC2CO2)CCCCC1 (stereo unspecified) reads 110 % of control

The measured T/C associated with `CCC(=O)c1cc(OC)cc(OC)c1` reads 115 % of control

The measured T/C associated with `S=c1cc(-c2cccs2)ss1` reads 115 % of control

The measured T/C associated with `CCOC(=O)c1cc(C)nnc1C(=O)OCC` reads 95 % of control

The measured T/C associated with `c1ccc(-c2c[n+]3cc4ccccc4cc3cn2)cc1` reads 100 % of control

The measured T/C associated with `Nc1cc(Cl)c(O)c(Cl)c1` reads 100 % of control

The measured T/C associated with `N=C(N)SCc1ccc(C(=O)Oc2ccc([N+](=O)[O-])cc2)cc1` reads 110 % of control

The measured T/C associated with CCOC(=O)C1CC[N+](=c2cc(-c3ccc(Cl)cc3)ss2)CC1 (stereo unspecified) reads 116 % of control

The measured T/C associated with CC1(Cl)C(=O)NC(=O)C1Cl (stereo unspecified) reads 113 % of control

* * *

system: BDF1 mice, P388 leukemia ip, median survival T/C; test: NCI In Vivo Anticancer Drug Screen. Data for tumor model P388 Leukemia (intraperitoneal) in B6D2F1 (BDF1) mice; settings: endpoint: median survival time; dose: 100.0 mg/kg/injection; schedule: Q01DX001 (ip); vehicle: saline with Tween-80; higher = longer survival
Toxic doses and inconclusive results are not listed.
parameter: T/C

The measured T/C associated with `S=C(Nc1ccccc1)N(C1CCCCC1)C1CCCCC1` reads 100 % of control

The measured T/C associated with `O=C(O)c1ccc2cc(O)ccc2c1` reads 113 % of control

The measured T/C associated with `CC[C@@H]1C[C@H]2CC3c4[nH]c5ccc(O)cc5c4CCN(C2)C31` reads 108 % of control

The measured T/C associated with `COc1ccccc1-n1c(=O)c(N=Nc2ccccc2)c(O)n(-c2ccccc2C)c1=S` reads 95 % of control

The measured T/C associated with `CCOC(=O)C(CCCO)C(=O)OCC` reads 100 % of control

The measured T/C associated with `Clc1cc(C(Cl)(Cl)Cl)ccc1C(Cl)(Cl)Cl` reads 100 % of control

The measured T/C associated with `COC(=O)Cc1[nH]ccc1C(=O)OC` reads 103 % of control

The measured T/C associated with `CS(=O)(=O)NC(=O)NC(=S)c1ccccc1` reads 100 % of control

The measured T/C associated with CC1=CCC(CC(N)=O)C1(C)C (stereo not given) reads 105 % of control

The measured T/C associated with `S=C1SC(c2ccccc2)(c2ccccc2)c2ccccc21` reads 100 % of control

* * *

Would you mind telling me the reported T/C of each entry?
system: BDF1 mice, P388 leukemia ip, median survival T/C; test: NCI In Vivo Anticancer Drug Screen. Data for tumor model P388 Leukemia (intraperitoneal) in B6D2F1 (BDF1) mice; conditions: endpoint: median survival time; dose: 50.0 mg/kg/injection; schedule: Q04DX003 (ip); vehicle: water; higher = longer survival
Toxic doses and inconclusive results are not listed. Residues, ends and D or L forms follow the SMILES beside them.

The measured T/C associated with CCN(CC)CCCC(C)NS(=O)(=O)c1cccc2c(N(C)C)cccc12 (centres undefined) reads 118 % of control

The measured T/C associated with CC(=O)[C@]1(O)Cc2c(O)c3c(c(O)c2[C@@H](OC2CC(N)C(O)C(C)O2)C1)C(=O)c1c(OC(C)C)cccc1C3=O (some centres undefined) reads 89 % of control

The measured T/C associated with `FC(F)(F)c1nc[nH]c1C(F)(F)F` reads 98 % of control

The measured T/C associated with `O=c1[nH]c2ccccc2c(=O)n1C1CCCCC1` reads 107 % of control

The measured T/C associated with COc1ccc(C2=CC(c3ccc4c(c3)OCO4)c3c(c4ccccc4oc3=O)O2)cc1OC (centres undefined) reads 101 % of control

The measured T/C associated with `O=Cc1ccc(/C=C2\NC(=O)NC2=O)cc1` reads 103 % of control

The measured T/C associated with CCOC(=O)CC(C)C(Br)(C(=O)OCC)C(=O)OCC (centres undefined) reads 110 % of control

The measured T/C associated with O=C1/C(=C\c2ccccc2)C(Br)c2ccccc21 (centres undefined) reads 91 % of control

The measured T/C associated with `O=C(C[n+]1ccccc1)N/N=C/c1ccc([N+](=O)[O-])s1` reads 104 % of control

The measured T/C associated with `Nc1ccc2cn[nH]c2c1` reads 103 % of control

The measured T/C associated with `[Cl][Pt+2]([Cl])([Cl])[Cl].c1ccc(C2CC[N-]CC2)cc1.c1ccc(C2CC[N-]CC2)cc1` reads 109 % of control

The measured T/C associated with `CCOC(=O)Nc1cncc(NC(=O)OCC)n1` reads 101 % of control

The measured T/C associated with CC(C)C(NC(=O)C(NC(=O)C(CCCN=C(N)N)NC(=O)C(N)CCCCN)C(C)C)C(N)=O (centres undefined) (H-KRVV-NH2; configuration not given here) reads 107 % of control

The measured T/C associated with `NC(N)=Nc1ccc(C(=O)Oc2ccc(OC(=O)c3cccc(N=C(N)N)c3)cc2)cc1` reads 103 % of control
